Taken from ChEMBL document CHEMBL3301361.

assay: in vitro; conditions: mouse, plasma
Here the recorded fraction unbound at 5 h is given for each entry.
// no unit string in output, number only

Known results for compounds:
| COMPOUND | fraction unbound at 5 h |
| --- | --- |
| COc1cc(C(C)C)c(Oc2cnc(NC(CO)CO)nc2N)cc1I | 0.0581 |
| CC1=C(C(=O)OCc2ccccc2)C(c2cccs2)NC(=O)N1 (stereo not drawn) | 0.03 |

Shifting focus to the compound that follows.
Note to self: fraction unbound at 5 h recorded for Cc1ccccc1-n1c(Cn2cnc3c(N)ncnc32)nc2cccc(C)c2c1=O was 0.0801

* * *

assay: physchem; conditions: octan-1-ol/water, pH 7.4, LogD7.4
PROPERTY_MEASURED: logD
Keep it simple and answer with nothing but the number.

| COMPOUND | logD |
| --- | --- |
| Cc1nc(-c2ccc(OCC(C)C)c(C#N)c2)sc1C(=O)O | 0.94 |
| CN1CCOc2cc(COc3ccccc3)cnc21 | 3.3 |

The compound identified as CCN(CC)CCOc1ccc(N(C)C(=O)c2ccc(-c3ccc(C(F)(F)F)cc3)cc2)cc1OC registered its logD at 3.13

Entry O=C(c1cccc(Cc2n[nH]c(=O)c3ccccc23)c1)N1CCN(c2ccccn2)CC1 — recorded logD = 2.36

# compound CS(=O)(=O)c1ccc(C(=O)Nc2ccc(Cl)c(-c3ccccn3)c2)c(Cl)c1 ; its logD = 2.84
